Test system: ScN2a
MEASUREMENT_DESCRIPTION: Cytotoxicity against mouse ScN2a cells up to 1 uM
Assay type: cell-based
PARAMETER_MEASURED: Activity

Cc1cc(-c2ccccc2)c2ccc3c(-c4ccccc4)cc(C)nc3c2n1 [BATHOCUPROINE]	Not Active
c1ccc2cc(-c3ccc4ccccc4n3)ncc2c1	Not Active
Cc1ccc2ccc3ccc(C)nc3c2n1 [NEOCUPROINE]	Not Active
O=C([O-])c1cc(-c2cc(C(=O)[O-])c3ccccc3n2)nc2ccccc12.[Na+].[Na+]	Not Active

All figures here come from ChEMBL document CHEMBL1145291.
